Ref: PubChem BioAssay AID720504

Molecular target: Serine/threonine-protein kinase PLK1 (Homo sapiens) (UniProt P53350)
Sequence (P53350 whole entry, looked up, the tested form may be a part): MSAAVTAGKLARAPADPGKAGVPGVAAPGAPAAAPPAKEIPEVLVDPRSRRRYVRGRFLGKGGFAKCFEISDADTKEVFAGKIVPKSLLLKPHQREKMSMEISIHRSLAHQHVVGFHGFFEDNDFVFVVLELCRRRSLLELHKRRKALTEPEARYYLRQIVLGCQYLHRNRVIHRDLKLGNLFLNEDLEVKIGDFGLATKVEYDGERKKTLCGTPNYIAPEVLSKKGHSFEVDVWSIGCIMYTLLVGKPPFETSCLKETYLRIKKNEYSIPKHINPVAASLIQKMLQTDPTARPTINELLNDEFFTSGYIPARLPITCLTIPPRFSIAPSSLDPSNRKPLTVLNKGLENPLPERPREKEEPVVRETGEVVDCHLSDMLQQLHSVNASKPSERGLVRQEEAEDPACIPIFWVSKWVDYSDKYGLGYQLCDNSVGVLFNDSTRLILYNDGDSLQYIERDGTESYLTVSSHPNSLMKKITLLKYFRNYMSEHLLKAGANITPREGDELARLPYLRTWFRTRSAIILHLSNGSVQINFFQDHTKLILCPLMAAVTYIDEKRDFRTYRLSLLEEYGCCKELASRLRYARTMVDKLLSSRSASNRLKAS
Assay: qHTS for Inhibitors of PLK1-PDB (polo-like kinase 1 - polo-box domain): Primary Screen; note: nearly all actives have a fitted effect of over 65% in size; note: potency is the fitted concentration of half-maximal effect
Settings: Plk1 PBD binding of FITC phosphopeptide, fluorescence polarization
The campaign covered roughly 360,000 compounds. About 10,000 (2.8%) were called active. Inconclusive results (about 4%) are left out. The list comes from a sample in which actives are over-represented; it also holds close analogues and randomly drawn compounds.
Observable: Potency

Form field, Potency with Serine/threonine-protein kinase PLK1 (Homo sapiens) (UniProt P53350), item CCn1c(SC)nc(O)c(C(c2ccc(OC)c(O)c2)c2c(O)nc(SC)n(CC)c2=O)c1=O : 16.8 µM (active)

Form field, Potency with Serine/threonine-protein kinase PLK1 (Homo sapiens) (UniProt P53350), item CN(C)C(=O)N=NC(=O)N(C)C : 1.89 µM (active)

Form field, Potency with Serine/threonine-protein kinase PLK1 (Homo sapiens) (UniProt P53350), item CCN1/C(=C/C(=S)Nc2ccccc2)Sc2ccccc21 : 21.2 µM (active)

Form field, Potency with Serine/threonine-protein kinase PLK1 (Homo sapiens) (UniProt P53350), item Nc1ccccc1SC(C[N+](=O)[O-])c1ccccc1 (stereo unspecified) : 0.752 µM (active)

Form field, Potency with Serine/threonine-protein kinase PLK1 (Homo sapiens) (UniProt P53350), item Cc1cc2nc3c(=O)n(Cc4ccccc4)c(=O)[nH]c3nc2cc1N : 3.36 µM (active)

Form field, Potency with Serine/threonine-protein kinase PLK1 (Homo sapiens) (UniProt P53350), item Nc1c(C(=O)O)cnn1-c1ccccc1 : 23.8 µM (active)

====

Molecular target: Serine/threonine-protein kinase PLK1 (Homo sapiens)
Assay: qHTS for Inhibitors of PLK1-PDB (polo-like kinase 1 - polo-box domain): Primary Screen; note: nearly all actives have a fitted effect of over 65% in size; for max response, negative = inhibition: series mostly up to about 57 µM; % is set by controls: 0 for no effect and ±100 for the full control effect
Details: Plk1 PBD binding of FITC phosphopeptide, fluorescence polarization
Out of some 360,000 compounds screened, about 10,000 (2.8%) were called active. Roughly 4% stayed inconclusive and do not appear here. This is one part of a sample in which actives are shown more often than they occur.
Observable: max response, negative = inhibition (%)
Use % as the unit, but write only the number.

COc1cccc(-c2cc3nc(NCCOc4ccccc4Cl)n(C)c(=O)c3s2)c1 has a reported max response, negative = inhibition of -5.38

CC(C)[C@@H](NC(=O)OC(C)(C)C)C(=O)NCC1CCC(C(=O)N[C@@H](Cc2ccccc2)C(=O)O)CC1 (some centres undefined) has a reported max response, negative = inhibition of 3.75

CC(C)(C)c1ccc(C(CC(=O)O)NS(=O)(=O)Cc2ccccc2)cc1 (centres undefined) has a reported max response, negative = inhibition of -2.95

CC1(C(=O)Nc2cccc3cccnc23)CCN1C(=O)CCC1CCCC1 (centres undefined) has a reported max response, negative = inhibition of 0.774

CCN(CC(=O)NC1CCS(=O)(=O)C1)c1nc(-c2cccnc2)nc2ccccc12 (centres undefined) has a reported max response, negative = inhibition of -6.17

O=C(CSc1n[nH]c(-c2cccnc2)n1)Nc1ccnc2ccccc12 has a reported max response, negative = inhibition of -8.72

COC(=O)c1ccc2nc(-c3ccc(C)cc3)c(Cc3ccc(OC)cc3C)n2c1 has a reported max response, negative = inhibition of -3.95

CCOc1ccc(CCN2C(=S)N([C@@H](CC(C)C)CN3CCC[C@@H]3CN3C(=S)NC[C@@H]3Cc3ccc(O)cc3)C[C@@H]2Cc2ccc(O)cc2)cc1 has a reported max response, negative = inhibition of 5.13

CCc1ccccc1NC(=O)CSc1nnc([C@@H](NC(=O)OC(C)(C)C)C(C)CC)o1 (some centres undefined) has a reported max response, negative = inhibition of -15.7

====

Biological target: Serine/threonine-protein kinase PLK1 (Homo sapiens) (UniProt P53350)
Assay: qHTS for Inhibitors of PLK1-PDB (polo-like kinase 1 - polo-box domain): Primary Screen; note: nearly all actives have a fitted effect of over 65% in size; for max response, negative = inhibition: series mostly up to about 57 µM; % is set by controls: 0 for no effect and ±100 for the full control effect
Conditions: Plk1 PBD binding of FITC phosphopeptide, fluorescence polarization
The whole screen tested about 360,000 compounds, of which about 10,000 (2.8%) were called active. Another 4% or so got no clear call; they are omitted. This is one part of a sample in which actives are shown more often than they occur.
Kindly supply the reported max response, negative = inhibition values for the records listed here.

O=C(Oc1ccc([N+](=O)[O-])cc1)c1ccc2ccccc2n1 has a reported max response, negative = inhibition of -21.6% (inactive)

O=C(NCc1cccnc1)Nc1ccccc1F has a reported max response, negative = inhibition of -0.233% (inactive)

CCOc1ncccc1C(=O)Nc1ccc(S(=O)(=O)Nc2nc(C)cc(C)n2)cc1 has a reported max response, negative = inhibition of 0.589% (inactive)

COc1ccccc1Cc1c(-c2ccc(Cl)cc2)nc2c3ccccc3ccn12 has a reported max response, negative = inhibition of -5.7% (inactive)

Cc1ccc(NC(=O)C2CCCN2C(=O)OCc2ccccc2)cc1C (stereo unspecified) has a reported max response, negative = inhibition of 2.68% (inactive)

COc1ccc(C(=O)N2CCCN(C)CC2)c(OC)c1 has a reported max response, negative = inhibition of 1.15% (inactive)

CCCCN(C(C)=O)c1ccc2c(c1)C1CC2CCN1Cc1ccccc1 (stereo unspecified) has a reported max response, negative = inhibition of -11% (inactive)

O=C(NCc1ccc(F)cc1)c1cc(C2CCCCN2C(=O)C2CCCCC2)on1 (stereo unspecified) has a reported max response, negative = inhibition of 2.6% (inactive)

Cc1cn([C@H]2C[C@H](O)[C@@H](/C=C/C(=O)NCCCc3ccccc3)O2)c(=O)[nH]c1=O has a reported max response, negative = inhibition of -13.1% (inactive)

CCOc1cc(C(=O)OCC(=O)Nc2cccc(C)c2)ccc1OCC(=O)N1CCOCC1 has a reported max response, negative = inhibition of -7.2% (inactive)

COC(=O)c1ccc2nc(-c3ccc(OC)c(OC)c3)c(Cc3ccccc3)n2c1 has a reported max response, negative = inhibition of -13.8% (inactive)

Cc1ccc(C(O)c2ncc(-c3ccccc3F)[nH]2)cc1F (stereo unspecified) has a reported max response, negative = inhibition of -7.55% (inactive)

Cc1ccc(C)c(NC(=O)C2CCCN2C(=O)OC(C)(C)C)c1 (stereo unspecified) has a reported max response, negative = inhibition of -4.64% (inactive)

CCOc1cc(C(=S)N2CCOCC2)ccc1OS(=O)(=O)c1ccc(Br)cc1 has a reported max response, negative = inhibition of -16.5% (inactive)

CC(C)(C)C1CCC(=O)N2CCC[C@]2(c2ccccc2)C1 (stereo partly specified) has a reported max response, negative = inhibition of -8.62% (inactive)

N#CCCC(C#N)(c1cccnc1)N1CCOCC1 (stereo unspecified) has a reported max response, negative = inhibition of -8.09% (inactive)

C[C@H](CO)N1C[C@H](C)[C@@H](CN(C)C(=O)C2CCCCC2)OCc2cnnn2CCCC1=O has a reported max response, negative = inhibition of -18.4% (inactive)

COc1cccc(-c2cc(NC(C)=O)c3ncc(-c4cccc(C(C)=O)c4)n3c2)c1 has a reported max response, negative = inhibition of -19.9% (inactive)

COc1cc(C2/C(=C(\O)c3ccc4c(c3)CC(C)O4)C(=O)C(=O)N2Cc2ccco2)ccc1O (stereo unspecified) has a reported max response, negative = inhibition of -6.21% (inactive)

CC(=O)C1=CCC(c2ccccc2)N(S(=O)(=O)c2ccc(C)cc2)C1 (stereo unspecified) has a reported max response, negative = inhibition of -15.4% (inactive)

COC(=O)[C@@]12C[C@@H](CC(=O)N3CCCCC3)C(=O)N(Cc3ccc4c(c3)OCO4)C1=CCC(C)(C)C2 has a reported max response, negative = inhibition of 2.15% (inactive)

COc1ccc(-c2ccc(C(=O)NC(C)C)c3occc23)c(C)c1 has a reported max response, negative = inhibition of -5.99% (inactive)

Cc1ccc(C(=O)/C=C/Nc2ccc(S(=O)(=O)Nc3onc(C)c3C)cc2)cc1 has a reported max response, negative = inhibition of -13.9% (inactive)

CN(C)c1ccc(-c2nnc(-c3cccnc3)o2)cc1 has a reported max response, negative = inhibition of 3.15% (inactive)

O=C(Nc1ccc2c(c1)[C@@H]1C[C@@H](CC(=O)N3CCCCC3)O[C@@H](CO)[C@@H]1O2)NC1CCCCC1 has a reported max response, negative = inhibition of 2.32% (inactive)

COc1ccc(C(C)(O)c2nc(-c3cc(F)cc(F)c3)cs2)cc1 (stereo unspecified) has a reported max response, negative = inhibition of 4.82% (inactive)

CCNC(=O)c1cnn(-c2ccccc2)c1-c1ccccc1 has a reported max response, negative = inhibition of -11.7% (inactive)

Cc1cn(C2OC[C@@H](O)[C@@H]2CO)c(=O)[nH]c1=O (stereo partly specified) has a reported max response, negative = inhibition of -5.18% (inactive)

COc1ccc(-c2coc3c(C(=O)NC(C)C)cccc23)c(C)c1 has a reported max response, negative = inhibition of -1.63% (inactive)

CCCOc1ccc(Cn2c(O)cc(=O)[nH]c2=O)cc1 has a reported max response, negative = inhibition of -26.3% (inactive)

COc1cc(OC)c(C(=O)N2CCCC2)cc1OC has a reported max response, negative = inhibition of -4.54% (inactive)

COC(=O)[C@]12CCCCC=C1N(Cc1ccc(Cl)cc1Cl)C(=O)[C@H](CC(=O)NCc1cccc3ccccc13)C2 has a reported max response, negative = inhibition of -11% (inactive)

O=C(O)c1ccccc1-c1ccccc1C(=O)NCc1cccnc1 has a reported max response, negative = inhibition of -5.72% (inactive)

Cc1ccc(NC(=O)CCNS(=O)(=O)c2ccc3c(c2)oc(=O)n3C)cc1C has a reported max response, negative = inhibition of 0.556% (inactive)

OC[C@@H]1CN(Cc2ccncc2)C[C@H](n2cnc3c(N4CCN(c5ccccc5)CC4)ncnc32)O1 has a reported max response, negative = inhibition of -12.1% (inactive)

Cc1ccnc(SC2CC(=O)N(c3ccccc3)C2=O)n1 (stereo unspecified) has a reported max response, negative = inhibition of -15.5% (inactive)

CCC(Oc1ccccc1)C(=O)OCC(=O)Nc1c(C)nn(-c2ccccc2)c1C (stereo unspecified) has a reported max response, negative = inhibition of -0.819% (inactive)

COC(=O)[C@]12CCCCC=C1N(Cc1cccc3ccccc13)C(=O)[C@H](CC(=O)N1CCOCC1)C2 has a reported max response, negative = inhibition of -13.4% (inactive)

CC(C)(C)NC(=O)C(CCc1ccccc1)n1c(=O)c(-c2ccccc2)nc2ccccc21 (stereo unspecified) has a reported max response, negative = inhibition of -22.7% (inactive)

CC(=O)N1Cc2cc(C(=O)NCc3cccc(F)c3)nc(-c3cccc(C4=CCCCC4)c3)c2[C@H]1CCO has a reported max response, negative = inhibition of -9.42% (inactive)

Cc1cccnc1C(NC(=O)C1CCN(Cc2ccc(Cl)c(Cl)c2)CC1)c1ccc(Cl)cc1 (stereo unspecified) has a reported max response, negative = inhibition of -6.41% (inactive)
